Target: TF-1 cells (Homo sapiens, UniProt P14778+Q9NPH3)
Sequence (P14778 18-569): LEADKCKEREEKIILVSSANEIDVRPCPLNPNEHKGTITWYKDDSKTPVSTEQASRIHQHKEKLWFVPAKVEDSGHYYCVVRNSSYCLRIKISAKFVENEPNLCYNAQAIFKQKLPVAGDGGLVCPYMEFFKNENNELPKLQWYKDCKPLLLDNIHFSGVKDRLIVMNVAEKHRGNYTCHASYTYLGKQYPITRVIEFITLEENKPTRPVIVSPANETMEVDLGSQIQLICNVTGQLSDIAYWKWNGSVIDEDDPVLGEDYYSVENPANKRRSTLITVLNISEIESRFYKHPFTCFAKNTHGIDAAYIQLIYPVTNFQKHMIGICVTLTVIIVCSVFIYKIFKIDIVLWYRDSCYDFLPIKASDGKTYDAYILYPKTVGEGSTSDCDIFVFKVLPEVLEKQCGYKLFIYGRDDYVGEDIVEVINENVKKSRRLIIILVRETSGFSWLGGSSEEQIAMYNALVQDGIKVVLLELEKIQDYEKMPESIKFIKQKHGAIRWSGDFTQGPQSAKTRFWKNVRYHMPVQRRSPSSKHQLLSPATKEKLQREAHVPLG
Sequence (Q9NPH3 21-570): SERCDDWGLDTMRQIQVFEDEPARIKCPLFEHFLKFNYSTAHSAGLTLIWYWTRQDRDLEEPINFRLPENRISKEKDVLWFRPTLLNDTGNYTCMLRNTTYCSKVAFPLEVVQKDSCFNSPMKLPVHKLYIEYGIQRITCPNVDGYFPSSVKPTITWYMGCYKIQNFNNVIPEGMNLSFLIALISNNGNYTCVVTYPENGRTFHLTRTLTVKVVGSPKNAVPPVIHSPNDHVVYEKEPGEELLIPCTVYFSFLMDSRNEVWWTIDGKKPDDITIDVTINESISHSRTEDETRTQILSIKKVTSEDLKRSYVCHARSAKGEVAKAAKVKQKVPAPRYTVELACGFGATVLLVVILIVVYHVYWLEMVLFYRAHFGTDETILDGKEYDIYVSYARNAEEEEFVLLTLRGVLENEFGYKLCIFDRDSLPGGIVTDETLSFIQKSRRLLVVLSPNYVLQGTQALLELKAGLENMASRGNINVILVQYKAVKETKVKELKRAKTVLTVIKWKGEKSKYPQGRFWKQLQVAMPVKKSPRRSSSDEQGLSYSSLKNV
Assay: IL-1ß-induced TF-1 proliferation
Format: cell-based
Settings: TF-1; Table 5
Where a SMILES comes first, the peptide text is derived from it.
Threshold check on Emax: strictly below 50% is criterion met; on or above 50% is criterion not met.

Task: Dear reviewer, please state whether CC(C)C[C@@H](NC(=O)[C@@H](CCC(=O)O)NC(=O)[C@H]1CCCN1C(=O)[C@H](NC(=O)[C@@H](Cc1ccc(O)cc1)NC(=O)[C@H](N)CCCNC(=N)N)[C@H](C)O)C(=O)O [API-101.113, RYTPEL] has Emax strictly beneath 50%.
Output: criterion not met

Task: Does this compound meet the criterion Emax < 50%? CC(C)C[C@@H](NC(=O)[C@@H](CCC(=O)O)NC(=O)[C@H]1CCCN1C(=O)[C@H](NC(=O)[C@@H](Cc1ccc(O)cc1)NC(=O)[C@H](N)CCCNC(N)=O)[C@H](C)O)C(N)=O [API-101.134, XYTPEL (X=Citrulline)]
Output: criterion met

Task: # check: Emax < 50% for CC(C)C[C@@H](NC(=O)[C@@H](CCC(=O)O)NC(=O)[C@H]1CCCN1C(=O)[C@H](NC(=O)[C@@H](Cc1ccc(O)cc1)NC(=O)[C@@H](N)CCCNC(=N)N)[C@H](C)O)C(N)=O [API-101.135, *RYTPEL]
Output: criterion not met

Task: Quick check: does CC(C)C[C@@H](NC(=O)[C@@H](CCC(=O)O)NC(=O)[C@H]1CCCN1C(=O)[C@H](NC(=O)[C@@H](Cc1ccccc1)NC(=O)[C@H](N)CCCNC(=N)N)[C@H](C)O)C(N)=O [API-101.132, RFTPEL] (HELM PEPTIDE1{[dR].[dF].[dT].[dP].[dE].[dL].[am]}$$$$V2.0; N-terminus and C-terminus assumed) have Emax under 50%?
Output: criterion met
